Tested on: Escherichia coli
Assay: Antimicrobial activity against katG gene-deficient Escherichia coli K-12 3157 by broth dilution method
Assay type: functional
ATTRIBUTE MEASURED: MIC (µg/mL)
All answers are understood in µg/mL, so give the number only.

- NC[C@H]1O[C@H](O[C@H]2[C@H](O)[C@@H](O[C@H]3O[C@H](CO)[C@@H](O)[C@H](N)[C@H]3O)[C@H](N)C[C@@H]2N)[C@H](O)[C@@H](O)[C@@H]1O: 0.6
- CCn1cc(C(=O)O)c(=O)c2cc(F)c(N3CCNCC3)cc21: 0.04

Request: What value of MIC has been recorded for this entry: CC1(C)S[C@@H]2[C@H](NC(=O)[C@H](N)c3ccccc3)C(=O)N2[C@H]1C(=O)O
Result: 15

Provenance of the data: ChEMBL document CHEMBL1649176
